Each record here notes measured Efficacy.
STUDY_TARGET: Human ALDH3A1 (Homo sapiens, UniProt P30838)
ASSAY_PROCEDURE: ALDH3A1 biochemical assay (benzaldehyde/NADP+, diaphorase-resazurin readout, 1,536-well)
MEASUREMENT_CONDITIONS: Table S5, biochemical
Would you mind answering with just the numeric figure?

Solved cases below.
Exercise: I would be grateful if you could share the reported Efficacy for O=C(NCc1ccc(Cl)c(F)c1)c1csc(N2CCN(c3cccc(C(F)(F)F)c3)CC2)n1 .
Solution: -100.15

Exercise: Next compound: Cc1nc(-c2cccc(CNC(=O)c3csc(N4CCN(c5cccc(C(F)(F)F)c5)CC4)n3)c2)cs1
Solution: -99.22

--- query ---
Exercise: I would be grateful if you could share the reported Efficacy for Cc1ccc(CNC(=O)c2csc(N3CCN(c4cccc(C(F)(F)F)c4)CC3)n2)cc1F .
Solution: -101.06

====

STUDY_TARGET: OE19 (3A1) (Homo sapiens)
Sequence (P30838 whole entry): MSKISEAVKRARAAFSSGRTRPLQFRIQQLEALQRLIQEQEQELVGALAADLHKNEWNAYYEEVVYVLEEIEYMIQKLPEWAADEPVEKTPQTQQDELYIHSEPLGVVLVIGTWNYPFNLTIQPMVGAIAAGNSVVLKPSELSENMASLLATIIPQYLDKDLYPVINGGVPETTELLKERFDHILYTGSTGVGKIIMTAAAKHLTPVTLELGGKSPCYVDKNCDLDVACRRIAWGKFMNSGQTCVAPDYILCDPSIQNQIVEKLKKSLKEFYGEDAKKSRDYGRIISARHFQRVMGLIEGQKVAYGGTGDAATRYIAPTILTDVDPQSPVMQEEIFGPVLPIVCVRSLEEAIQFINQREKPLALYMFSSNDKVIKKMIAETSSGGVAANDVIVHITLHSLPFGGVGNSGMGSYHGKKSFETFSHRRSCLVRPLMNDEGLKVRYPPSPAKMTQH
ASSAY_PROCEDURE: Cellular ALDEFLUOR assay in OE19 cells (preferential ALDH3A1 expression)
MEASUREMENT_CONDITIONS: Table S4, cellular curve class
Each record here notes measured Cell_CC-v2.

Exercise: I would be grateful if you could share the reported Cell_CC-v2 for COc1ccc(N2CCN(c3nc(C(=O)NCc4cccc(C)c4)cs3)CC2)cc1OC .
Solution: -1.1

Exercise: Next compound: Cc1cccc(CNC(=O)c2csc(N3CCN(c4ccc(OCCF)cc4)CC3)n2)c1
Solution: -1.1

Exercise: Next compound: Cc1cccc(CNC(=O)c2csc(N3CCN(c4ccc(O)cc4)CC3)n2)c1
Solution: -1.2

====

STUDY_TARGET: Human ALDH3A1 (Homo sapiens, UniProt P30838)
ASSAY_PROCEDURE: ALDH3A1 biochemical assay (benzaldehyde/NADP+, diaphorase-resazurin readout, 1,536-well)
MEASUREMENT_CONDITIONS: Table S5, biochemical
VALUE_TYPE: Efficacy
Would you mind answering with just the numeric figure?

Exercise: Write down the reported Efficacy of C[S+](=N)([O-])c1cccc(CNC(=O)c2csc(N3CCN(c4cccc(C(F)(F)F)c4)CC3)n2)c1 (stereo not shown) [NCGC01407817-01] , test system: Human ALDH3A1 (Homo sapiens, UniProt P30838).
Solution: -57.06

Exercise: Next compound: O=C(NCc1ccc(SC(F)(F)F)cc1)c1csc(N2CCN(c3cccc(C(F)(F)F)c3)CC2)n1 [NCGC01407771-01]
Solution: -94.50

Exercise: Next compound: O=C(NCc1cccc(N2CCC[S+]2(=O)[O-])c1)c1csc(N2CCN(c3cccc(C(F)(F)F)c3)CC2)n1 [NCGC01407948-01]
Solution: -52.77

Exercise: Next compound: O=C(NCc1ccc(N2CCNC2=O)cc1)c1csc(N2CCN(c3cccc(C(F)(F)F)c3)CC2)n1 [NCGC01407779-01]
Solution: -73.90

---
Exercise: Write down the reported Efficacy of O=C(NCc1ccc(Oc2ccc(F)cc2)cc1)c1csc(N2CCN(c3cccc(C(F)(F)F)c3)CC2)n1 [NCGC01407922-01] , test system: Human ALDH3A1 (Homo sapiens, UniProt P30838).
Solution: -26.41

Exercise: Next compound: O=C(NCc1cccc(CC(F)(F)F)c1)c1csc(N2CCN(c3cccc(C(F)(F)F)c3)CC2)n1 [NCGC01407930-01]
Solution: -103.16

Exercise: Next compound: O=C(NCc1cccc(Oc2ccccc2)c1)c1csc(N2CCN(c3cccc(C(F)(F)F)c3)CC2)n1 [NCGC01407978-01]
Solution: -100.27

Exercise: Next compound: Cc1cc(CNC(=O)c2csc(N3CCN(c4cccc(C(F)(F)F)c4)CC3)n2)ccc1Cl [Compound 16]
Solution: -106.26

Exercise: Next compound: O=C(NCc1ccc(-c2ccncc2)nc1)c1csc(N2CCN(c3cccc(C(F)(F)F)c3)CC2)n1 [NCGC01397294-01]
Solution: -73.44

Exercise: Next compound: O=C(Nc1ccc(CNC(=O)c2csc(N3CCN(c4cccc(C(F)(F)F)c4)CC3)n2)cc1)c1ccncc1 [NCGC01397389-01]
Solution: -20.50

Exercise: Next compound: O=C(NCc1cccc(C(=O)N2CCCCC2)c1)c1csc(N2CCN(c3cccc(C(F)(F)F)c3)CC2)n1 [NCGC01407977-01]
Solution: -16.69

Exercise: Next compound: O=C(COc1cccc(CNC(=O)c2csc(N3CCN(c4cccc(C(F)(F)F)c4)CC3)n2)c1)NC1CC1 [NCGC01407783-01]
Solution: -80.39

Exercise: Next compound: O=C(NCc1ccc(Br)c(C(F)(F)F)c1)c1csc(N2CCN(c3cccc(C(F)(F)F)c3)CC2)n1 [NCGC01396480-01]
Solution: -96.06

This collection of values is drawn from paper PMC13266984.
